target: HLA-A*26:01; assay: IEDB peptide-MHC binding, purified MHC/competitive/radioactivity; filed as Kd, often an IC50 or EC50 that approximates it; bounds were set here for any values at or beyond the usual limits of such assays; details: source organism: SARS coronavirus Tor2

# chain, measurement.qualifier, Kd (nM)
rows = [
    ("NMVYMPASW", "≥", 77900),
    ("CTPPALNCY", "≥", 43600),
    ("FSSLPSYAAY", "=", 261),
    ("ELSPRWYFYY", "=", 4.04),
    ("LSNFGAPSY", "=", 4580),
    ("KWDLLKYDF", "≥", 77900),
    ("VVAIDYRHY", "≥", 22100),
    ("ATEETFKLSY", "=", 11700),
    ("GTGPEASLPY", "=", 412),
    ("EYADVFHLYL", "=", 1970),
    ("MMSAPPAEY", "=", 2240),
]

###

biological target: HLA-A*33:01; experiment: IEDB peptide-MHC binding, purified MHC/competitive/radioactivity; filed as Kd, often an IC50 or EC50 that approximates it; bounds were set here for any values at or beyond the usual limits of such assays; conditions: source organism: Vaccinia virus WR
Quick reference: Kd of the listed items.

# chain, Kd
measured = [
    ("KSVTKSSSWK", "≥ 55.7 µM"),
    ("IQRFSSLRR", "≥ 30.4 µM"),
    ("MFLTSVINR", "0.000841 µM"),
    ("FIDRGSIKIK", "3.96 µM"),
    ("SSNKDPITVY", "≥ 70 µM"),
    ("MSTYSDICSK", "≥ 70 µM"),
    ("VFTDISMSLY", "6.76 µM"),
    ("FTQHLLNIR", "≥ 77.7 µM"),
]

###

target: HLA-A*30:01; test: IEDB peptide-MHC binding, purified MHC/direct/fluorescence; filed as Kd, often an IC50 or EC50 that approximates it; bounds were set here for any values at or beyond the usual limits of such assays; details: source organism: Campylobacter jejuni

# chain, Kd
records = [
    ("VKKLWGHLP", "≥ 20 µM"),
]

###

log10 IC50: recorded values
target: HLA-A*02:01; assay: IEDB peptide-MHC binding, purified MHC/competitive/fluorescence; bounds were set here for any values at or beyond the usual limits of such assays; conditions: source organism: Zaire ebolavirus
readout.kind: log10 IC50 (log10 of the value in µM)

# chain, measured.on, log10 IC50
data = [
    ("SGLLIVKTV", "HLA-A*02:01", 0.36),
    ("LIHQGMHMV", "HLA-A*02:01", -0.35),
    ("IMASENSSA", "HLA-A*02:01", 0.39),
    ("LGVIHNSTL", "HLA-A*02:01", 1.84),
    ("WIPYFGPAA", "HLA-A*02:01", -0.05),
    ("ILQKTERGV", "HLA-A*02:01", 0.94),
    ("AIALGVATA", "HLA-A*02:01", -0.06),
    ("HLTTLATIS", "HLA-A*02:01", 1.84),
    ("AMVTLRKER", "HLA-A*02:01", 1.48),
]

###

target: HLA-A*02:01; assay: IEDB peptide-MHC binding, purified MHC/direct/fluorescence; filed as Kd, often an IC50 or EC50 that approximates it; bounds were set here for any values at or beyond the usual limits of such assays; settings: source organism: Brucella abortus 2308
readout.kind: Kd

# chain, result
data = [
    ("TPPVDRMAV", "≥ 20 µM"),
]

###

target: HLA-B*45:06; assay: IEDB peptide-MHC binding, purified MHC/competitive/fluorescence; filed as Kd, often an IC50 or EC50 that approximates it; bounds were set here for any values at or beyond the usual limits of such assays; details: source organism: Hantaan virus 76-118
readout.kind: Kd

# chain, result
rows = [
    ("TPGRYRTAV", "≥ 5 µM"),
]

###

target: HLA-A*02:12; experiment: IEDB peptide-MHC binding, purified MHC/competitive/fluorescence; filed as Kd, often an IC50 or EC50 that approximates it; bounds were set here for any values at or beyond the usual limits of such assays; conditions: source organism: Corynebacterium glutamicum ATCC 13032

# chain, reading.unit, Kd
records = [
    ("HLPELIWRS", "nM", 800),
]

###

molecular target: HLA-A*02:03; experiment: IEDB peptide-MHC binding, purified MHC/direct/fluorescence; filed as Kd, often an IC50 or EC50 that approximates it; bounds were set here for any values at or beyond the usual limits of such assays; conditions: source organism: Zaire ebolavirus

# chain, Kd
rows = [
    ("NYNGLLSSI", "≥ 20 µM"),
    ("QFLSFASLF", "≥ 20 µM"),
    ("QTEPKTSVV", "≥ 20 µM"),
]

###

molecular target: HLA-B*58:01; experiment: IEDB peptide-MHC binding, purified MHC/competitive/fluorescence; filed as Kd, often an IC50 or EC50 that approximates it; bounds were set here for any values at or beyond the usual limits of such assays; details: source organism: Mycobacterium tuberculosis F11
pKd: −log10 of the molar value.
readout.kind: pKd

# chain, recorded.number
measured = [
    ("FSIPVTFSY", 9.15),
]

###

target: HLA-A*02:11; test: IEDB peptide-MHC binding, purified MHC/direct/fluorescence; filed as Kd, often an IC50 or EC50 that approximates it; bounds were set here for any values at or beyond the usual limits of such assays; settings: source organism: Influenza A virus H3N2
pKd: −log10 of the molar value.
readout.kind: pKd

# chain, measured.on, result
rows = [
    ("VTTEVAFGL", "HLA-A*02:11", "≥ 9.00"),
]

###

target: HLA-A*31:01; experiment: IEDB peptide-MHC binding, purified MHC/direct/fluorescence; filed as Kd, often an IC50 or EC50 that approximates it; bounds were set here for any values at or beyond the usual limits of such assays; settings: source organism: Orthohantavirus andesense

# chain, measured.on, Kd
measured = [
    ("SIKFKRKLM", "HLA-A*31:01", "≥ 20 µM"),
]

###

biological target: HLA-A*03:01; test: IEDB peptide-MHC binding, purified MHC/competitive/radioactivity; filed as Kd, often an IC50 or EC50 that approximates it; bounds were set here for any values at or beyond the usual limits of such assays; settings: source organism: Dengue virus 3 Martinique/1243/1999
pKd: −log10 of the molar value.

# chain, measured.on, pKd
measured = [
    ("LLNGQGPMK", "HLA-A*03:01", 7.79),
]

###

biological target: HLA-B*08:01; assay: IEDB peptide-MHC binding, purified MHC/direct/fluorescence; filed as Kd, often an IC50 or EC50 that approximates it; bounds were set here for any values at or beyond the usual limits of such assays; settings: source organism: Giardia lamblia ATCC 50803
pKd: −log10 of the molar value.
readout.kind: pKd

# chain, result
rows = [
    ("YTDDYPMYK", "≤ 4.70"),
    ("ELRKRNEAL", 7.38),
    ("VYAYPSGEK", "≤ 4.70"),
    ("YQYGDNLIL", "≤ 4.70"),
]

###

molecular target: HLA-A*02:06; assay: IEDB peptide-MHC binding, purified MHC/competitive/radioactivity; filed as Kd, often an IC50 or EC50 that approximates it; bounds were set here for any values at or beyond the usual limits of such assays; conditions: source organism: Vaccinia virus WR
pKd: −log10 of the molar value.

# chain, measured.on, measurement.qualifier, pKd
data = [
    ("AIKQYGDIDL", "HLA-A*02:06", "≤", 4.16),
    ("GALYLGHSA", "HLA-A*02:06", "=", 6.10),
    ("LINLVQYRI", "HLA-A*02:06", "=", 5.27),
    ("GMSIVCIVAA", "HLA-A*02:06", "=", 5.91),
    ("SLVITYCLV", "HLA-A*02:06", "=", 6.57),
    ("SAEVERLMEL", "HLA-A*02:06", "=", 5.90),
    ("PTSETMYLTM", "HLA-A*02:06", "=", 6.04),
    ("PIPYSRVNHA", "HLA-A*02:06", "=", 5.84),
    ("ETLFGSYIT", "HLA-A*02:06", "=", 4.82),
    ("ALINLVQYRI", "HLA-A*02:06", "=", 6.38),
    ("NLYISDYKML", "HLA-A*02:06", "≤", 4.44),
    ("GMMQNDYGGM", "HLA-A*02:06", "=", 4.92),
    ("RTRLYDYFT", "HLA-A*02:06", "≤", 4.31),
    ("KADAVVADL", "HLA-A*02:06", "=", 5.66),
    ("EVNDTHYTV", "HLA-A*02:06", "=", 5.32),
    ("DVEKRILNTI", "HLA-A*02:06", "=", 4.97),
    ("ALEPRKEIDV", "HLA-A*02:06", "≤", 4.20),
    ("QVKELGIAI", "HLA-A*02:06", "=", 5.43),
    ("YVEHDPRLV", "HLA-A*02:06", "≤", 4.65),
    ("ELPVKTDIV", "HLA-A*02:06", "=", 4.94),
    ("YAGTIKESL", "HLA-A*02:06", "=", 5.48),
]
